molecular target: C277T/R296P (SEQ ID NO: 476) (Thermotoga maritima, UniProt Q9WXT2, C277T/R296P); construct: made in house; host or cells: E. coli; assay type: biochemical; conditions: 100 mM ester, 60 mM H2O2, 40 ppm enzyme, 95 mM phosphate pH 7.2, 37° C.
Sequence (Q9WXT2 whole entry C277T/R296P): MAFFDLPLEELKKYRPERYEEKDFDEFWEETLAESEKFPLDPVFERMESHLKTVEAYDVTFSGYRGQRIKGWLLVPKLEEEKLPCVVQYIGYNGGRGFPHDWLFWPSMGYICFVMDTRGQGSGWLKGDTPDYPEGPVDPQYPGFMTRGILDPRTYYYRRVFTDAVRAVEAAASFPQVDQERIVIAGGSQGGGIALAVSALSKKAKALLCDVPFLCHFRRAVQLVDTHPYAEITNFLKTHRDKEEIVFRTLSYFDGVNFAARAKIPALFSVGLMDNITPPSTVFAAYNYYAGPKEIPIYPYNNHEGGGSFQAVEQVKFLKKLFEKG
Assign class by Maximum Peracetic Acid (PAA) (ppm), C277T/R296P (SEQ ID NO: 476): not lower than 900 ppm means label 1; lower than 900 ppm means label 0.

# Compound, Measured on, Discrete label
rows = [
    ("CC(=O)O[C@@H]1O[C@H](CO)[C@@H](OC(C)=O)[C@H](OC(C)=O)[C@H]1OC(C)=O [β-D-glucopyranose,1,2,3,4-tetraacetate]", "C277T/R296P (SEQ ID NO: 476) (Thermotoga maritima, UniProt Q9WXT2, C277T/R296P)", "label 1"),
    ("CC(=O)Oc1ccc(C(=O)O)cc1", "C277T/R296P (SEQ ID NO: 476) (Thermotoga maritima, UniProt Q9WXT2, C277T/R296P)", "label 0"),
    ("CC(=O)OCC(C)OC(C)=O (centres unmarked) [Propylene glycol diacetate]", "C277T/R296P (SEQ ID NO: 476) (Thermotoga maritima, UniProt Q9WXT2, C277T/R296P)", "label 1"),
    ("CC(=O)OC1OC[C@@H](OC(C)=O)[C@@H](OC(C)=O)[C@H]1OC(C)=O (some centres unmarked)", "C277T/R296P (SEQ ID NO: 476) (Thermotoga maritima, UniProt Q9WXT2, C277T/R296P)", "label 1"),
]

-- ask Check the entry CC(=O)OCCOCCOC(C)=O [Diethylene glycol diacetate] : does Maximum Peracetic Acid (PAA) (ppm), C277T/R296P (SEQ ID NO: 476) equal or exceed 900 ppm?
-- reply label 0

-- ask Check the entry CC(=O)OC[C@H]1O[C@@](COC(C)=O)(O[C@H]2O[C@H](COC(C)=O)[C@@H](OC(C)=O)[C@H](OC(C)=O)[C@H]2OC(C)=O)[C@@H](OC(C)=O)[C@@H]1OC(C)=O [Sucrose octaacetate] : does Maximum Peracetic Acid (PAA) (ppm), C277T/R296P (SEQ ID NO: 476) equal or exceed 900 ppm?
-- reply label 0

-- ask Check the entry CC(=O)OCc1ccc(C=O)o1 : does Maximum Peracetic Acid (PAA) (ppm), C277T/R296P (SEQ ID NO: 476) equal or exceed 900 ppm?
-- reply label 1
